Reported Kd values for a set of binders
Biological target: T1, cynomolgous serum albumin (cynomolgous, UniProt A2V9Z4 25-608)
T1 construct: also called CSA; Cyano
T1 sequence (A2V9Z4 25-608 limits assumed): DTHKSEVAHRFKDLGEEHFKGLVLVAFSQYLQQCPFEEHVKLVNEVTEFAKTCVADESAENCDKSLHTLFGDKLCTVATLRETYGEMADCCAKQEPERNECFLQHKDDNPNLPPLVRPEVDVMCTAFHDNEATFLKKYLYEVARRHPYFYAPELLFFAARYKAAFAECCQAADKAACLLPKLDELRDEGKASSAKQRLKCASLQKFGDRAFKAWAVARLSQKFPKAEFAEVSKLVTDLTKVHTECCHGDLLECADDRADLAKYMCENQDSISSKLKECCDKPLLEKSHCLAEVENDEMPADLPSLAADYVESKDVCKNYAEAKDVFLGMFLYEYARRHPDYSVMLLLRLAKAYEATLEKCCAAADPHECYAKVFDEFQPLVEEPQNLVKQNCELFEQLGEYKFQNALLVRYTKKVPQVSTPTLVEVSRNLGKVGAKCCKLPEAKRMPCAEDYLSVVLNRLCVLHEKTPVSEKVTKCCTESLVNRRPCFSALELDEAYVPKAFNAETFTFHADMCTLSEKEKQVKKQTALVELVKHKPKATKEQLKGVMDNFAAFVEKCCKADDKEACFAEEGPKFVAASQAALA
Test: SPR, albumin on chip, pH 7.4;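 further: Human, mouse, rat and cynomolgus serum albumins amine-coupled to carboxyl sensor chips, with a hen egg lysozyme surface measured in parallel as negative control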
Entry rule: numbers only, all in nM.

Check out these entries, answers already filled in.
BINDER: BA11-aminoxy (VNAR, C-terminal aminoxy (intein cleavage with dioxyamine)) VNAR: TRVDQSPSSLSASVGDRVTITCVLTDTSYPLYSTYWYRKNPGSSNKEQISISGRYSESVNKGTKSFTLTISSLQPEDSATYYCRAMSTNIWTGDGAGTKVEIK
READING UNIT: nM
ENDPOINT RESULT: 7.97
--
BINDER: BA11 (humanised HSA-binding VNAR) (VNAR, VNAR) VNAR: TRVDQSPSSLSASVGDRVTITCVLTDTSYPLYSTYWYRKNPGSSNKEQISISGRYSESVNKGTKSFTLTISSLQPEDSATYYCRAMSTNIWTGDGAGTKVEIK
READING UNIT: nM
ENDPOINT RESULT: 3.36
--
BINDER: BA11 C-terminal thiol derivative (VNAR, C-terminal thiol (intein cleavage with cysteamine), also called BA11-SH) VNAR: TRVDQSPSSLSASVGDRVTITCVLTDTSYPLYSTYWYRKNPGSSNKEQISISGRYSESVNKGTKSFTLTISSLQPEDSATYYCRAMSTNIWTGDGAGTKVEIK
READING UNIT: nM
ENDPOINT RESULT: 3.41
--
BINDER: BA11-C term thiol-maleimide-peg-fluorescein (VNAR, C-terminal thiol conjugated to maleimide-peg-fluorescein, also called BA11-S-mal-Fl) VNAR: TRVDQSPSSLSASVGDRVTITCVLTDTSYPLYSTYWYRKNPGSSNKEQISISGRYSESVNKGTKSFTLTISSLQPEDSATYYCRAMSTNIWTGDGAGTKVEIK
READING UNIT: nM
ENDPOINT RESULT: 2.3
--
BINDER: BA11 C-terminal cysteine derivative (VNAR, additional C-terminal cysteine (intein cleavage with cysteine), also called BA11-cys) VNAR: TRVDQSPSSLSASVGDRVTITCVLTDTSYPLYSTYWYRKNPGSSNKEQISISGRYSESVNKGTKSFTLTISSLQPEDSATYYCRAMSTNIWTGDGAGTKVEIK
READING UNIT: nM
ENDPOINT RESULT: 2.1
--
BINDER: BA11-oxime-fluorescein (VNAR, C-terminal oxime-linked benzaldehyde-peg-fluorescein) VNAR: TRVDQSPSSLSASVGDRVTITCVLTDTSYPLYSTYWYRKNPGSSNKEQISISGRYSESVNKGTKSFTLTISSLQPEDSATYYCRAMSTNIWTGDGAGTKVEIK
READING UNIT: nM
ENDPOINT RESULT: 1.75

Q: Consider the binder BA11-C terminal cysteine-maleimide-peg-fluorescein (VNAR, C-terminal cysteine conjugated to maleimide-peg-fluorescein, also called BA11-cys-mal-Fl) VNAR: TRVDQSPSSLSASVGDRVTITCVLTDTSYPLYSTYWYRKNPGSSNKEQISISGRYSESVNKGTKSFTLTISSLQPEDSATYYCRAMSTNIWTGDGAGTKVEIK . State its measured Kd.
Result: 3.68
